log10 IC50 listing for selected molecules.
- assay-comment: Inhibition of complement system in human fetal serum assessed as inhibition of hemolysis incubated for 1 hr by spectrophotometric analysis
In our notation, the value equals log10 of IC50 in nM.

Answered cases to consult:
molecule	log10 IC50
CCCCCOc1cc(NC(=O)N[C@@H](C)c2ccccc2)ccc1OC	1.28
CCCCCCCOc1cc(NC(=O)N[C@@H](C)c2ccccc2)ccc1OC	2.89
CCCCOc1cc(NC(=O)NC(CC)c2ccccc2)ccc1OC (stereo not given)	2.62
COc1ccc(NC(=O)N(CCCO)[C@@H](C)c2ccccc2)cc1OCCCC(C)C	2.35
COc1ccc(N(C)C(=O)N[C@@H](C)c2ccccc2)cc1OCCCC(C)C	2.73

So what's the measured log10 IC50 for this one? `CCCOc1cc(NC(=O)N[C@@H](C)c2ccccc2)ccc1OC`
2.55

So what's the measured log10 IC50 for this one? `COc1ccc(NC(=O)N[C@@H](C)c2ccccc2)cc1OCCC(C)C`
2.80

So what's the measured log10 IC50 for this one? `CC#CCOc1cc(NC(=O)N[C@@H](C)c2ccccc2)ccc1OC`
3.20

So what's the measured log10 IC50 for this one? `COc1ccc(NC(=O)N[C@@H](C)c2ccccc2[N+](=O)[O-])cc1OCCCC(C)C`
2.57

So what's the measured log10 IC50 for this one? `COc1ccc(NC(=O)N[C@@H](C)c2ccc(O)cc2)cc1OCCCC(C)C`
2.14

----------
- assay-comment: Inhibition of complement system in human fetal serum assessed as inhibition of hemolysis incubated for 1 hr by spectrophotometric analysis
IC50 less than 6 µM is class 1; IC50 greater than or equal to 6 µM is class 0.

given-smiles	discrete-label
CCC#CCOc1cc(NC(=O)N[C@@H](C)c2ccccc2)ccc1OC	class 1
CCOC(=O)COc1cc(NC(=O)N[C@@H](C)c2ccccc2)ccc1OC	class 0
COc1ccc(NC(=O)N(CCCN)[C@@H](C)c2ccccc2)cc1OCCCC(C)C	class 0
C#CCOc1cc(NC(=O)N[C@@H](C)c2ccccc2)ccc1OC	class 0
CCCCCCOc1cc(NC(=O)N[C@@H](C)c2ccccc2)ccc1OC	class 1

// next entry
Hello, is IC50 of the following compound strictly smaller than 6 µM? `N=C(N)c1cc2ccc(OC(=O)c3cccs3)cc2s1`
class 1

----------
- assay-comment: Inhibition of complement system in human fetal serum assessed as inhibition of hemolysis incubated for 1 hr by spectrophotometric analysis
quantity-measured: IC50 (µM)
Reply with just the number (in µM).

Answered cases to consult:
compound	IC50, µM
CCOc1cc(NC(=O)N[C@@H](C)c2ccccc2)ccc1OC	2.86
COc1ccc(NC(=O)N[C@@H](C)c2ccccc2)cc1OCC1CCCN(C)C1 (some centres not stated)	3.2
COc1ccc(NC(=O)N[C@@H](C)c2ccc(F)cc2)cc1OCCCC(C)C	0.402

So what's the measured IC50 for this one? `COc1ccc(NC(=O)N[C@@H](C)c2ccccc2)cc1OCC(C)C`
0.87

So what's the measured IC50 for this one? `COc1ccc(N(CCCO)C(=O)N[C@@H](C)c2ccccc2)cc1OCCCC(C)C`
1.58

So what's the measured IC50 for this one? `COc1ccc(NC(=O)N[C@@H](C)c2cccc(Br)c2)cc1OCCCC(C)C`
1.32

So what's the measured IC50 for this one? `COc1ccc(NC(=O)N[C@@H](C)c2ccc([N+](=O)[O-])cc2)cc1OCCCC(C)C`
1.69

----------
log10 of IC50 listing for selected molecules.
- assay-comment: Inhibition of complement system in human fetal serum assessed as inhibition of hemolysis incubated for 1 hr by spectrophotometric analysis
In our notation, the value equals log10 of IC50 in nM.

So what's the measured log10 of IC50 for this one? `COc1ccc(NC(=O)N[C@@H](C)c2ccc(C#N)cc2)cc1OCCCC(C)C`
3.10

So what's the measured log10 of IC50 for this one? CCCCOc1cc(NC(=O)N2CCCC2c2ccccc2)ccc1OC (centres undefined)
2.02

So what's the measured log10 of IC50 for this one? `COc1ccc(NC(=O)N[C@@H](C)c2ccccc2)cc1OCC1CCCCC1`
2.67

So what's the measured log10 of IC50 for this one? `COc1ccc(NC(=O)N[C@@H](C)c2ccc(C(=O)O)cc2)cc1OCCCC(C)C`
2.88

So what's the measured log10 of IC50 for this one? `COc1ccc(NC(=O)N[C@@H](C)c2ccccc2)cc1OCCN1CCCCC1`
4.55

So what's the measured log10 of IC50 for this one? COc1ccc(NC(=O)N(CC(O)CO)[C@@H](C)c2ccccc2)cc1OCCCC(C)C (some centres undefined)
2.57

So what's the measured log10 of IC50 for this one? `COc1ccc(NC(=O)N[C@@H](C)c2ccc(Br)cc2)cc1OCCCC(C)C`
3.53

So what's the measured log10 of IC50 for this one? `COc1ccc(NC(=O)N[C@@H](C)c2ccccc2)cc1OCCCC(C)C`
1.11

So what's the measured log10 of IC50 for this one? `CCCCCCCCOc1cc(NC(=O)N[C@@H](C)c2ccccc2)ccc1OC`
3.11

So what's the measured log10 of IC50 for this one? `COc1ccc(NC(=O)N[C@@H](C)c2ccccc2)cc1OC(C)C`
4.03

So what's the measured log10 of IC50 for this one? `COCCOc1cc(NC(=O)N[C@@H](C)c2ccccc2)ccc1OC`
3.30

So what's the measured log10 of IC50 for this one? `CCCCCOc1cccc(NC(=O)N[C@@H](C)c2ccccc2)c1`
3.51

So what's the measured log10 of IC50 for this one? `COc1ccc(NC(=O)N[C@@H](C)c2ccc(C)cc2)cc1OCCCC(C)C`
2.51

So what's the measured log10 of IC50 for this one? `COC(=O)c1ccc([C@H](C)NC(=O)Nc2ccc(OC)c(OCCCC(C)C)c2)cc1`
2.73
